testTarget: recombinant full-length human PDE2A protein (Homo sapiens)
Construct: A recombinant full-length human PDE2A protein; GST (N)
Sequence (O00408 whole entry): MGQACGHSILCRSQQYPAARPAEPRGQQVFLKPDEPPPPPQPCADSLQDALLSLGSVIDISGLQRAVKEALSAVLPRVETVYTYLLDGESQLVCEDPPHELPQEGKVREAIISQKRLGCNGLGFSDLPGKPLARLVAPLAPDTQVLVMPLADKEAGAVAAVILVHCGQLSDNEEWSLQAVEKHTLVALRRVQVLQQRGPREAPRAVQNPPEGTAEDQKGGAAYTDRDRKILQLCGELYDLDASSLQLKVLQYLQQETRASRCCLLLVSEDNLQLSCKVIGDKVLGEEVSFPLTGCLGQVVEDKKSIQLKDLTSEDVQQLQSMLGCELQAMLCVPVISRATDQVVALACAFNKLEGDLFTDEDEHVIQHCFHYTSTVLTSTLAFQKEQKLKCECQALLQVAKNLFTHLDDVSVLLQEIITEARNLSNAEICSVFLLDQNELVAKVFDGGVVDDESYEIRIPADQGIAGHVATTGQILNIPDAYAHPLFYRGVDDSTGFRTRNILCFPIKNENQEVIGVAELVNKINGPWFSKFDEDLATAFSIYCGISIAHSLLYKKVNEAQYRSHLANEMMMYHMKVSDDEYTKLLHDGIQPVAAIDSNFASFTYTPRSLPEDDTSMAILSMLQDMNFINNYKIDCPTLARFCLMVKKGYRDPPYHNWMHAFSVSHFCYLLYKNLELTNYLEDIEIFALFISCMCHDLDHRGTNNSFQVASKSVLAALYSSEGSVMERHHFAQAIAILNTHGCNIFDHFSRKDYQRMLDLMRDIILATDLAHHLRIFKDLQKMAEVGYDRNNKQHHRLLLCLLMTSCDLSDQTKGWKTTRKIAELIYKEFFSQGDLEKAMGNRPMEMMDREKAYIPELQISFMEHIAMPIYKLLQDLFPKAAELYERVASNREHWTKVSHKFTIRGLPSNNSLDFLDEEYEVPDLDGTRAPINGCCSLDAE
protocolText: In vitro evaluation on inhibition activities of PDE2 phosphodiesterase (fluorescence polarization, Transcreener AMP2/GMP2)
recordedConditions: substrate 1 μM cGMP
parameterMeasured: IC50

Req: Specify reported IC50 for the compound shown: Cn1c(=O)n(C[C@H]2CC[C@@](C)(O)CC2)c(=O)c2c1ncn2CC1CC1
Resp: 1 to 10 µM

---

protocolText: Solubility of crystal form A in different solvents
Format: physicochemical
recordedConditions: organic solvent or mixture, thermodynamic from solid; 2-methyltetrahydrofuran, room temperature
parameterMeasured: solubility

Req: Specify reported solubility for the compound shown: Cn1c(=O)n(C[C@H]2CC[C@@](C)(O)CC2)c(=O)c2c1ncn2CC1CC1 [Crystal Form A]
Resp: ~24.2 mg/mL
